test system: RSV replicon; test: microbe, parasite or virus in culture; type: cell-based; details: human respiratory syncytial virus, read-out: EC50, the concentration of the drug required for reducing RSV replicon RNA by 50%
pEC50: −log10 of the molar value.
Parameter pEC50: see the listing below.

# MOLECULE, TEST_RESULT
data = [
    ("COc1cc(C(=O)NCC(O)(c2cc(C(C)(C)NCC(=O)O)cc(-c3ccc(F)c(Cl)c3)n2)C(F)(F)F)ccc1OC1CC1 (centres unmarked)", "> 6.00"),
    ("COc1cc(C(=O)NC[C@@](O)(c2cc(C(C)(C)N)cc(-c3ccc(F)c(Cl)c3)n2)C(F)(F)F)ccc1OC[C@@H](C)O", "> 6.00"),
]

Looking up COc1cc(C(=O)NCC(O)(c2cc(C(C)(C)N)cc(-c3ccc(F)c(Cl)c3)n2)C(F)(F)F)ccc1OC1CC1(F)F (centres unmarked) , I see its pEC50 listed as > 6.00

Form field pEC50, entry COc1cc(C(=O)NCC(O)(c2cc3c(c(-c4ccc(F)c(Cl)c4)n2)OCC3C)C2CC2)ccc1OCCO (centres unmarked) : > 6.00

Given item COc1ccc(C(=O)NCC(O)c2cccc(-c3csc4c(F)cccc34)n2)cc1OC (centres unmarked) , the value recorded as its pEC50 is > 6.00

Form field pEC50, entry CC(C)(N)c1cc(-c2ccc(F)c(Cl)c2)nc(C(O)(CNC(=O)c2ccc3c(c2)OC(F)(F)O3)C(F)(F)F)c1 (centres unmarked) : > 6.00

According to the records, this molecule COc1ccc(C(=O)NCC(O)(c2cc(C(C)(C)N)cc(-c3ccc(F)c(Cl)c3)n2)C(F)(F)F)cc1OC (centres unmarked) displays pEC50 of > 6.00

Entry source: patent US11021444B2
